assay: photochromic response of test squares on an optical bench (sensitivity, saturation, bleach rate); format: physicochemical; details: first five (5) seconds of UV exposure, expressed per minute, 72° F. (22.2° C.)
Reported Sensitivity ΔOD/min values follow for various compounds

[
  {
    "compound": "CCCCCC1OC(=O)c2c3c(c4ccccc4c2O1)OC(c1ccccc1)(c1ccc(OC)cc1)C=C3 (centres unmarked)",
    "Sensitivity ΔOD/min": "0.75 ΔOD/min"
  },
  {
    "compound": "O=C1OC(c2ccccc2)Oc2c1c1c(c3ccccc23)OC(c2ccccc2)(c2ccccc2)C=C1 (centres unmarked)",
    "Sensitivity ΔOD/min": "0.60 ΔOD/min"
  },
  {
    "compound": "O=C1OCOc2c1c1c(c3ccccc23)OC(c2ccccc2)(c2ccccc2)C=C1",
    "Sensitivity ΔOD/min": "0.76 ΔOD/min"
  },
  {
    "compound": "Cn1c(=O)oc2c(c3c(c4ccccc42)OC(c2ccccc2)(c2ccccc2)C=C3)c1=O",
    "Sensitivity ΔOD/min": "0.41 ΔOD/min"
  },
  {
    "compound": "CCOC(=O)CCn1c(=O)oc2c(c3c(c4ccccc42)OC(c2ccccc2)(c2ccccc2)C=C3)c1=O",
    "Sensitivity ΔOD/min": "0.44 ΔOD/min"
  },
  {
    "compound": "CCC1OC(=O)c2c3c(c4ccccc4c2O1)OC(c1ccccc1)(c1ccccc1)C=C3 (centres unmarked)",
    "Sensitivity ΔOD/min": "0.67 ΔOD/min"
  },
  {
    "compound": "CCCCCCn1c(=O)oc2c(c3c(c4ccccc42)OC(c2ccccc2)(c2ccccc2)C=C3)c1=O",
    "Sensitivity ΔOD/min": "0.46 ΔOD/min"
  },
  {
    "compound": "CC(c1ccccc1)C1OC(=O)c2c3c(c4ccccc4c2O1)OC(c1ccccc1)(c1ccccc1)C=C3 (centres unmarked)",
    "Sensitivity ΔOD/min": "0.63 ΔOD/min"
  }
]

###

assay: photochromic response of test squares on an optical bench (sensitivity, saturation, bleach rate); format: physicochemical; conditions: first five (5) seconds of UV exposure, expressed per minute, 72° F. (22.2° C.)

[
  {
    "compound": "C=C(C)C(=O)OCCn1c(=O)oc2c(c3c(c4ccccc42)OC(c2ccccc2)(c2ccccc2)C=C3)c1=O",
    "Sensitivity ΔOD/min": "0.26 ΔOD/min"
  },
  {
    "compound": "CC(C)CC1OC(=O)c2c3c(c4ccccc4c2O1)OC(c1ccccc1)(c1ccccc1)C=C3 (stereo not shown)",
    "Sensitivity ΔOD/min": "0.64 ΔOD/min"
  },
  {
    "compound": "CCCCCC1OC(=O)c2c3c(c4ccccc4c2O1)OC(c1ccccc1)(c1ccccc1)C=C3 (stereo not shown)",
    "Sensitivity ΔOD/min": "0.67 ΔOD/min"
  },
  {
    "compound": "COc1ccc(C2(c3ccc(OC)cc3)C=Cc3c4c(c5ccccc5c3O2)OCOC4=O)cc1",
    "Sensitivity ΔOD/min": "0.74 ΔOD/min"
  }
]

###

Reported ΔOD @ Saturation values follow for various molecules
Assay: photochromic response of test squares on an optical bench (sensitivity, saturation, bleach rate)
Format: physicochemical
Conditions: UV exposure continued for 15 minutes, 72° F. (22.2° C.)
Protocol: Testing was done with the photochromic compounds prepared in Examples 1-14 in the following manner. A quantity of each photochromic compound, except Compounds 13A and 14, calculated to yield a 1.5×10^-3 molal solution was added to a flask containing 50 grams of a monomer blend of 4 parts ethoxylated bisphenol A dimethacrylate (BPA 2EO DMA), 1 part poly(ethylene glycol) 600 dimethacrylate, and 0.033 weight percent 2,2'-azobis(2-methyl propionitrile) (AIBN). […]

[
  {
    "molecule": "CC(C)CC1OC(=O)c2c3c(c4ccccc4c2O1)OC(c1ccccc1)(c1ccccc1)C=C3 (stereo not shown)",
    "ΔOD @ Saturation": 1.72
  },
  {
    "molecule": "COc1ccc(C2(c3ccc(OC)cc3)C=Cc3c4c(c5ccccc5c3O2)OCOC4=O)cc1",
    "ΔOD @ Saturation": 0.67
  },
  {
    "molecule": "CCCCCC1OC(=O)c2c3c(c4ccccc4c2O1)OC(c1ccccc1)(c1ccccc1)C=C3 (stereo not shown)",
    "ΔOD @ Saturation": 1.74
  },
  {
    "molecule": "C=C(C)C(=O)OCCn1c(=O)oc2c(c3c(c4ccccc42)OC(c2ccccc2)(c2ccccc2)C=C3)c1=O",
    "ΔOD @ Saturation": 0.32
  }
]

###

experiment: photochromic response of test squares on an optical bench (sensitivity, saturation, bleach rate); type: physicochemical; conditions: time to one half the highest absorbance at room temperature (72° F., 22.2° C.) after removal of activating light
# cutoff 4 min applies to Bleach Rate T 1/2; >= gives Criterion met, < gives Criterion not met

[
  {
    "compound": "CCCCCCn1c(=O)oc2c(c3c(c4ccccc42)OC(c2ccccc2)(c2ccccc2)C=C3)c1=O [Example 11]",
    "class label": "Criterion not met"
  },
  {
    "compound": "CCOC(=O)CCn1c(=O)oc2c(c3c(c4ccccc42)OC(c2ccccc2)(c2ccccc2)C=C3)c1=O [Example 10]",
    "class label": "Criterion not met"
  },
  {
    "compound": "CC(c1ccccc1)C1OC(=O)c2c3c(c4ccccc4c2O1)OC(c1ccccc1)(c1ccccc1)C=C3 (stereo not drawn) [Example 8]",
    "class label": "Criterion met"
  },
  {
    "compound": "CCC1OC(=O)c2c3c(c4ccccc4c2O1)OC(c1ccccc1)(c1ccccc1)C=C3 (stereo not drawn) [Example 4]",
    "class label": "Criterion met"
  },
  {
    "compound": "COc1ccc(C2(c3ccc(OC)cc3)C=Cc3c4c(c5ccccc5c3O2)OCOC4=O)cc1 [Example 2]",
    "class label": "Criterion not met"
  },
  {
    "compound": "C=C(C)C(=O)OCCn1c(=O)oc2c(c3c(c4ccccc42)OC(c2ccccc2)(c2ccccc2)C=C3)c1=O [Example 12]",
    "class label": "Criterion not met"
  },
  {
    "compound": "CCCCCC1OC(=O)c2c3c(c4ccccc4c2O1)OC(c1ccccc1)(c1ccc(OC)cc1)C=C3 (stereo not drawn) [Example 3]",
    "class label": "Criterion not met"
  },
  {
    "compound": "O=C1OC(c2ccccc2)Oc2c1c1c(c3ccccc23)OC(c2ccccc2)(c2ccccc2)C=C1 (stereo not drawn) [Example 7]",
    "class label": "Criterion met"
  },
  {
    "compound": "CCCCCC1OC(=O)c2c3c(c4ccccc4c2O1)OC(c1ccccc1)(c1ccccc1)C=C3 (stereo not drawn) [Example 5]",
    "class label": "Criterion met"
  },
  {
    "compound": "O=C1OCOc2c1c1c(c3ccccc23)OC(c2ccccc2)(c2ccccc2)C=C1 [Example 1]",
    "class label": "Criterion not met"
  },
  {
    "compound": "Cn1c(=O)oc2c(c3c(c4ccccc42)OC(c2ccccc2)(c2ccccc2)C=C3)c1=O [Example 9]",
    "class label": "Criterion not met"
  }
]
